Reported DSF (dTmD) values follow for various molecules
# measuredOn: Recombinant Human Siglec-3/CD33 protein (His-CD33) (Homo sapiens (Human), UniProt P20138)
# assayNotes: Differential scanning fluorimetry (DSF) thermal shift assay
# Assay type: binding
# conditionSet: difference in thermal melt of CD33 protein (0.5 μM) with 50 μM compound
# unit: °C | format: bare number

Worked cases, answers included:
[[record]]
molecule = "Cc1cc(C(=O)NC[C@@H](O)[C@@H](O)[C@@H]2O[C@@](C/C=C/c3cccc(CNC(=O)c4cnccn4)c3)(C(=O)O)C[C@H](O)[C@H]2NC(=O)Cn2cc(C3CCCCC3)nn2)cc(C)c1O [A-270]"
experimentalresult = 6.0

[[record]]
molecule = "CC(=O)NC1[C@H]([C@H](O)[C@H](O)CNC(=O)c2cc(C)c(O)c(C)c2)O[C@@](CC(=O)N2CCOC[C@@]23CCN(C(=O)OC(C)(C)C)C3)(C(=O)O)C[C@@H]1O (some centres unmarked) [A-221]"
experimentalresult = 7.0


Tell me DSF (dTmD) reported for Cc1cc2cc(C)c1OCCCNC(=O)[C@H](C)COCCCC[C@]1(C(=O)O)C[C@H](O)[C@@H](NC(=O)Cn3cc(C4CCCCC4)nn3)[C@@H](O1)[C@H](O)[C@H](O)CNC2=O [A-359] 1.1

Tell me its DSF (dTmD) given COCCC(=O)NCc1cccc(/C=C/C[C@]2(C(=O)O)C[C@H](O)[C@@H](NC(=O)Cn3cc(C4CCCCC4)nn3)[C@H]([C@H](O)[C@H](O)CNC(=O)c3cc(C)c(O)c(C)c3)O2)c1 [A-265] as the entry. 4.1

Answer with the recorded DSF (dTmD) for the molecule listed here: Cc1cc(C(=O)NC[C@@H](O)[C@@H](O)[C@@H]2O[C@@](C/C=C/c3cccc(CNC(=O)c4cn[nH]c4)c3)(C(=O)O)C[C@H](O)[C@H]2NC(=O)Cn2cc(C3CCCCC3)nn2)cc(C)c1O [A-277] 4.3

###

# measuredOn: Recombinant human CD33 protein (Homo sapiens (Human), UniProt P20138)
# Sequence (P20138 18-259): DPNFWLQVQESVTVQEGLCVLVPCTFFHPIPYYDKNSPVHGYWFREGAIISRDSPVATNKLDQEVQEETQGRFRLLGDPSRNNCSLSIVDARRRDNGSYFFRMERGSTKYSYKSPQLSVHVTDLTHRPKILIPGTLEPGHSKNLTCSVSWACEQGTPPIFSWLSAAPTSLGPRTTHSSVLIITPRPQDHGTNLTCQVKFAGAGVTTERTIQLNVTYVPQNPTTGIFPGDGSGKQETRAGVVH
# assayNotes: CD33 competitive binding assay for HTS drug screen (fluorescent multivalent sialic acid probe)
This section presents molecules with their documented EC50 values.
Enter the number, and then the unit.

[[record]]
molecule = "CC(=O)N[C@H]1[C@H]([C@H](O)[C@H](O)CNC(=O)c2cc(C)c(O)c(C)c2)O[C@@](CCN2CCOC[C@@]23CCN(C(=O)NC2(c4ccccc4)CC2)C3)(C(=O)O)C[C@@H]1O"
experimentalresult = "0.147 µM"


Tell me its EC50 given CC(=O)N[C@H]1[C@H]([C@H](O)[C@H](O)CNC(=O)c2cc(C)c(O)c(C)c2)O[C@@](C/C=C/c2cccc(CNC(=O)c3ccc4[nH]c(-c5c[nH]c6ccccc56)cc4c3)c2)(C(=O)O)C[C@@H]1O as the entry. 3.26 µM

Complete the entry with EC50 for COCCC(=O)NCc1cccc(/C=C/C[C@]2(C(=O)O)C[C@H](O)[C@@H](NC(=O)Cn3cc(C4CCCCC4)nn3)[C@H]([C@H](O)[C@H](O)CNC(=O)c3cc(C)c(O)c(C)c3)O2)c1 1.37 µM

Specify measured EC50 for C=C[C@H]1CN(C(=O)OC(C)(C)C)C[C@@]1(C)NCC[C@]1(C(=O)O)C[C@H](O)[C@@H](NC(C)=O)[C@H]([C@H](O)[C@H](O)CNC(=O)c2cc(C)c(O)c(C)c2)O1 . 0.88 µM

Specify measured EC50 for CNC(=O)c1cccc(COC(=O)NCC(=O)NC2CCCCC2O[C@]2(C(=O)O)C[C@H](O)[C@@H](NC(=O)Cn3cc(C4CCCCC4)nn3)[C@H]([C@H](O)[C@H](O)CNC(=O)c3cc(C)c(O)c(C)c3)O2)c1 (stereo partly shown) . 6.61 µM

Indicate the recorded EC50 value for this molecule: CC(=O)N[C@H]1[C@H]([C@H](O)[C@H](O)CNC(=O)c2cc(C)c(O)c(C)c2)O[C@@](CC2OC(C)(C)O[C@H]2c2cccc(CC(=O)OC(C)(C)C)c2)(C(=O)O)C[C@@H]1O (stereo partly shown) 1.14 µM

Retrieve EC50 measured for Cc1cc(C(=O)NC[C@@H](O)[C@@H](O)[C@@H]2O[C@@](CC3OC(C)(C)O[C@H]3c3cccc(CNC(=O)OC(C)(C)C)c3)(C(=O)O)C[C@H](O)[C@H]2NC(=O)Cn2cc(C3CCCCC3)nn2)cc(C)c1O (stereo partly shown) and print it. 5.26 µM

Entry C=C(OC(C)(C)C)N1CC2(CCN2CC[C@]2(C(=O)O)C[C@H](O)[C@@H](NC(C)=O)[C@H]([C@H](O)[C@H](O)CNC(=O)c3cc(C)c(O)c(C)c3)O2)C1 needs its EC50 filled in; supply it. 0.887 µM

Return the recorded EC50 value; entry: Cc1cc2cc(C)c1OCCOC[C@@H](NC(=O)C1CCCOC1)COCCCC[C@]1(C(=O)O)C[C@H](O)[C@@H](NC(=O)Cn3cc(C4CCCCC4)nn3)[C@@H](O1)[C@H](O)[C@H](O)CNC2=O (stereo partly shown) 3.5 µM

Please give measured EC50 of the following entry: CC(=O)N[C@H]1[C@H]([C@H](O)[C@H](O)CNC(=O)c2cc(C)c(O)c(C)c2)O[C@@](CCNC2(C)CCN(C(=O)OC(C)(C)C)C2)(C(=O)O)C[C@@H]1O (stereo partly shown) 0.83 µM

Look up EC50 of CC(=O)N[C@H]1[C@H]([C@H](O)[C@H](O)CNC(=O)c2cc(C)c(O)c(C)c2)O[C@@](CCN2CCOCC2c2cccnc2)(C(=O)O)C[C@@H]1O (stereo partly shown) and report it. 7.94 µM

Answer with the recorded EC50 for the molecule listed here: CC(=O)N[C@H]1[C@H]([C@H](O)[C@H](O)CNC(=O)c2ccc(C(F)(F)F)c(C)c2)O[C@@](CCN2CCOC[C@@]23CCN(C(=O)OC(C)(C)C)C3)(C(=O)O)C[C@@H]1O 0.23 µM

Check the records and state EC50 for CC(=O)N[C@H]1[C@H]([C@H](O)[C@H](O)CNC(=O)c2cc(C)c(O)c(C)c2)O[C@@](C/C=C/c2cccc(-c3cc(N)on3)c2)(C(=O)O)C[C@@H]1O 4.3 µM

Quickly give me recorded EC50 for CC(=O)N[C@H]1[C@H]([C@H](O)[C@H](O)CNC(=O)c2cc(C)c(O)c(C)c2)O[C@@](CCN2CCOC[C@@]23CCN(C(=O)C2CCOCC2)C3)(C(=O)O)C[C@@H]1O 0.452 µM

Give the value of EC50 reported for the following: CC(=O)N[C@H]1[C@H]([C@H](O)[C@H](O)CNC(=O)c2ccc(N3CCN(C)CC3)cc2)O[C@@](CCN2CCOC[C@@]23CCN(C(=O)OC(C)(C)C)C3)(C(=O)O)C[C@@H]1O 0.334 µM

Quickly give me recorded EC50 for CC(=O)N[C@H]1[C@H]2O[C@](C(=O)O)(C/C=C/COC[C@@H](NC(=O)OC(C)(C)C)COCCCOc3c(C)cc(cc3C)C(=O)NC[C@@H](O)[C@H]2O)C[C@@H]1O 6.54 µM

Note down EC50 recorded for CC(=O)N[C@H]1[C@H]([C@H](O)[C@H](O)CNC(=O)c2cc(Br)c(O)c(Br)c2)O[C@@](CCN2CCOC[C@@]23CCN(C(=O)OC(C)(C)C)C3)(C(=O)O)C[C@@H]1O 0.007 µM

Identify EC50 associated with the molecule CC(=O)N[C@H]1[C@H]2O[C@](C(=O)O)(CCCCOC[C@@H](NC(=O)C3CCCOC3)COCCOc3c(C)cc(cc3C)C(=O)NC[C@@H](O)[C@H]2O)C[C@@H]1O (stereo partly shown) 45.4 µM

Return reported EC50. Input molecule: CC(=O)NC1[C@H]([C@H](O)[C@H](O)CNC(=O)c2cc(C)c(O)c(C)c2)O[C@@](CC(=O)N2CCOC[C@@]23CCN(C(=O)NC(C)(C)C)C3)(C(=O)O)C[C@@H]1O (stereo partly shown) 0.123 µM

###

# measuredOn: Recombinant human CD33 protein (Homo sapiens (Human), UniProt P20138)
# assayNotes: CD33 competitive binding assay for HTS drug screen (fluorescent multivalent sialic acid probe)
valueKind: EC50

Worked set:
[[record]]
compound = "CC(=O)N[C@H]1[C@H]([C@H](O)[C@H](O)CNC(=O)c2cc(C)c(O)c(C)c2)O[C@@](CCN2CCOC[C@@]23CCN(C(=O)CC(C)c2ccccc2)C3)(C(=O)O)C[C@@H]1O (stereo partly drawn) [A-068]"
valuekind = "EC50"
experimentalresult = "0.101 µM"

[[record]]
compound = "Cc1ccc(CN(C)C(=O)C2CCCOC2)cc1/C=C/C[C@]1(C(=O)O)C[C@H](O)[C@@H](NC(=O)Cn2cc(C3CCCCC3)nn2)[C@H]([C@H](O)[C@H](O)CNC(=O)c2cc(C)c(O)c(C)c2)O1 (stereo partly drawn) [A-287]"
valuekind = "EC50"
experimentalresult = "1.16 µM"


Note: attention shifts to another entry.
Supply EC50 value. Item: CC(=O)N[C@H]1[C@H]([C@H](O)[C@H](O)CNC(=O)c2cc(C)c(O)c(C)c2)O[C@@](CCN2CCOC[C@@]23CCN(C(=O)c2c(C)cccc2C)C3)(C(=O)O)C[C@@H]1O [A-086] > 5 µM
